Test: Induction of anti-CD3/CD28 antibodies-stimulated human T cell activation at 4 uM assessed fold increase in CD25 expression measured by ELISA assay
Type: functional, T cell line
property-measured: fold change (FC)
// no unit string in output, number only

Name the recorded fold change (FC) for `CN1CC2CCC(C1)N2c1cc2c(c(C(F)(F)F)c1)CN(c1cccc([C@@](C)(F)C(F)(F)c3nncn3C)c1)C2=O` .
1.51

For the compound C[C@H](CC1=NN=CC1C(F)(F)F)c1cccc(N2Cc3c(cc(C(=O)N4CC[C@H](O)C4)cc3C(F)(F)F)C2=O)c1 (stereo not given in full) , what fold change (FC) is on record?
1.01

I am curious: what fold change (FC) value has been reported for `C[C@H](Cc1nncn1C)c1cccc(NC(=O)c2nc3c(C4CC4)cccc3[nH]2)c1` ?
1.01

Name the recorded fold change (FC) for `C[C@H](Cc1nncn1C)c1cccc(NC(=O)c2ccn3nccc3n2)c1` .
1.01

###

Test: Induction of activation of human CD56+ CD3- NK cells co-cultured with human K562 cells in 5:1 ratio and assessed as increase in MIP1beta secretion at 10 uM measured by ELISA assay
Type: functional, Natural killer cell
property-measured: fold change (FC)
The reply should be a number, written without any unit.

Bench note: what fold change (FC) did `Cn1cnnc1C(F)(F)[C@](C)(F)c1cccc(N2Cc3c(cc(CN4CC[C@H](F)C4)cc3C(F)(F)F)C2=O)c1` show?
2.01

// fold change (FC) lookup, key: `C[C@H](Cc1nncn1C)c1cccc(NC(=O)c2cc(C3CC3)cc(C(F)(F)F)n2)c1`
1.01

Quick one: fold change (FC) for `Cn1cnnc1C(F)(F)[C@](C)(F)c1cccc(N2Cc3c(cc(CN4CCC(F)(F)C4)cc3C(F)(F)F)C2=O)c1` ?
2.01

Would you kindly share the measured fold change (FC) for `C[C@H](Cc1nncn1C)c1cccc(N2Cc3c(cccc3C(F)(F)F)C2=O)c1.Cl` ?
1.01

I have this molecule here, `C[C@H](Cc1nncn1C)c1cccc(N2Cc3c(cc(CN4CC[C@H](F)C4)cc3C(F)(F)F)C2=O)c1` , and I need its recorded fold change (FC).
1.01

###

Assay: Induction of anti-CD3/CD28 antibodies-stimulated human T cell activation at 0.3 uM assessed fold increase in CD25 expression measured by ELISA assay
Assay type: functional, T cell line
property-measured: fold change (FC)
Lab note: record just the number, no unit beside it.

// returns reported fold change (FC) for input `Cn1cnnc1CC1(c2cccc(N3Cc4c(cc(CN5CC[C@H](F)C5)nc4C4CC4)C3=O)c2)COC1`
1.01

Recorded fold change (FC) of CN1CC2CCC1CN2c1cc2c(c(C(F)(F)F)c1)CN(c1cccc([C@@](C)(F)C(F)(F)c3nncn3C)c1)C2=O (some centres undefined) , please.
1.31

Quick one: fold change (FC) of `COc1cc(C(=O)Nc2cccc([C@H](C)Cc3nncn3C)c2)nc(C(F)(F)F)c1` ?
1.01

Which fold change (FC) reading was recorded for the compound `C[C@H](Cc1nncn1C)c1cccc(N2Cc3c(cc([C@H](C)N4CC[C@H](F)C4)cc3C(F)(F)F)C2=O)c1` ?
1.31

###

Entries annotated with measured pKd
Target: E3 ubiquitin-protein ligase CBL-B (Homo sapiens, UniProt Q13191)
Sequence (Q13191 whole entry, the tested form may be a part): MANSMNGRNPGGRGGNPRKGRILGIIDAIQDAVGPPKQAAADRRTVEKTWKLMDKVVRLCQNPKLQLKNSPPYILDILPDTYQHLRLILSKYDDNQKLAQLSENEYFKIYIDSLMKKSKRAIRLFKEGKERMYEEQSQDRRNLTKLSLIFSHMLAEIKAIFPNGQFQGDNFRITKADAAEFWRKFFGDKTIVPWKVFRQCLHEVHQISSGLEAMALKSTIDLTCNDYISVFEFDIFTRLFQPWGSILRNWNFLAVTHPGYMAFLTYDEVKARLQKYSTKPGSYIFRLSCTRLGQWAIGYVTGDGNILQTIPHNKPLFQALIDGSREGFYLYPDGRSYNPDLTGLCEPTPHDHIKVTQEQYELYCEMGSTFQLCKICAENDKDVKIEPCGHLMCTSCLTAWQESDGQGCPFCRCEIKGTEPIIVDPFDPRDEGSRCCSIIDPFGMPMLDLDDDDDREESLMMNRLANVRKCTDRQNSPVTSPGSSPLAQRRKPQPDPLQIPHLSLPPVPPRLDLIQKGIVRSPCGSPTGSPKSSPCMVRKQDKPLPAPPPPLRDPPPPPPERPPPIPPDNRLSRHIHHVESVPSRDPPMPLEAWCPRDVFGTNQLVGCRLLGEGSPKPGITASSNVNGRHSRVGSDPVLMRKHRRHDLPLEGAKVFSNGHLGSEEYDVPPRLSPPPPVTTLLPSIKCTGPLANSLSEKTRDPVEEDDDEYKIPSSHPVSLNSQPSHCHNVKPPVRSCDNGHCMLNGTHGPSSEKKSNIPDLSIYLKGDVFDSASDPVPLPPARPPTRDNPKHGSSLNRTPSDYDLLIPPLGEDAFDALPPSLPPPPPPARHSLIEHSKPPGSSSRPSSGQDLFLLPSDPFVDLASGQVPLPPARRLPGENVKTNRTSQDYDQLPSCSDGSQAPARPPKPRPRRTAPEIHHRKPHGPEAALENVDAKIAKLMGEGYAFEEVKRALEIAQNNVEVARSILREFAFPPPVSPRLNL
Experiment: Binding affinity towards N-terminal biotinylated Avi-tagged human CBL-B (36 to 427 residues) measured by surface plasmon resonance assay
pKd: −log10 of the molar value.

These solved cases illustrate the format of a correct answer.
Provide value of pKd for this record tested with E3 ubiquitin-protein ligase CBL-B (Homo sapiens, UniProt Q13191): `Cn1cnnc1[C@@H](F)C1(c2cccc(N3Cc4c(cc(CN5CCC(F)CC5)cc4C(F)(F)F)C3=O)c2)COC1`
> 7.00

API: value(readout= pKd, system= E3 ubiquitin-protein ligase CBL-B (Homo sapiens, UniProt Q13191), query= `Cn1cnnc1C(F)(F)[C@](C)(F)c1cccc(N2Cc3c(cc(CN4CC[C@H](S(C)(=O)=O)C4)cc3C(F)(F)F)C2=O)c1` )
> 7.00

Missing value: pKd, E3 ubiquitin-protein ligase CBL-B (Homo sapiens, UniProt Q13191), entry `Cn1cnnc1CC(C)(C)c1cccc(N2Cc3c(cc(C4CC4)cc3C(F)(F)F)C2=O)c1` . Fill in?
> 7.00

Return pKd measured with E3 ubiquitin-protein ligase CBL-B (Homo sapiens, UniProt Q13191) given this compound: `CCNc1cc([C@H](C)Cc2nncn2C)cc(N2Cc3c(cccc3C(F)(F)F)C2=O)n1`
> 7.00

Hello, I am looking for reported pKd with E3 ubiquitin-protein ligase CBL-B (Homo sapiens, UniProt Q13191) for `C[C@H](Cc1nnco1)c1cccc(N2Cc3c(cccc3C(F)(F)F)C2=O)c1` . Could you help?
< 5.00

Continuing:
Quick check: pKd on E3 ubiquitin-protein ligase CBL-B (Homo sapiens, UniProt Q13191), item `C[C@H](Sc1nncn1C)c1cccc(NC(=O)c2cc(C(=O)N3CCC[C@H](O)C3)ccn2)c1` ?
< 5.00

# value lookup — system E3 ubiquitin-protein ligase CBL-B (Homo sapiens, UniProt Q13191), readout pKd, item `C[C@H](Cc1nncn1C)c1cccc(N2Cc3c(cc(CN4CC[C@@H](F)C4)cc3C(F)(F)F)C2=O)c1`
> 7.00

Query for E3 ubiquitin-protein ligase CBL-B (Homo sapiens, UniProt Q13191): what pKd does the record show for CC(Sc1nncn1C)c1cccc(NC(=O)c2ccc3ccncc3c2)c1 (stereo not drawn) ?
< 5.00
